- experiment.description: Cmax in Sprague-Dawley rat at 10 mg/kg via oral gavage measured upto 24 hrs
- Format: ADME, organism-based
- Design: dose 10 mg/kg, route oral
- study.conditions: in vivo
endpoint: Cmax (ng/mL)
Your answer should be a plain number; it is taken to be in ng/mL.

Reported Cmax for `Cn1cc(-c2ccc(N3CCC([C@H]4c5c(F)cccc5-c5cncn54)CC3)cc2)cn1` was 1850

====

- experiment.description: Cmax in Beagle dog at 2 mg/kg via oral gavage measured upto 24 hrs
- Assay type: ADME, organism-based, Canis lupus familiaris
- Set-up: dose 2 mg/kg, route oral
- study.conditions: in vivo
endpoint: Cmax (ng/mL)
Numeric only. Scale: ng/mL

Reported Cmax of `Cn1cc(-c2ccc(N3CCC([C@H]4c5c(F)cccc5-c5cncn54)CC3)cc2)cn1` : 166

====

Can you tell me log10 of IC50 for the items I'm about to list?
- tested.system: Indoleamine 2,3-dioxygenase 1 (Homo sapiens, UniProt P14902)
- Sequence (P14902 whole entry): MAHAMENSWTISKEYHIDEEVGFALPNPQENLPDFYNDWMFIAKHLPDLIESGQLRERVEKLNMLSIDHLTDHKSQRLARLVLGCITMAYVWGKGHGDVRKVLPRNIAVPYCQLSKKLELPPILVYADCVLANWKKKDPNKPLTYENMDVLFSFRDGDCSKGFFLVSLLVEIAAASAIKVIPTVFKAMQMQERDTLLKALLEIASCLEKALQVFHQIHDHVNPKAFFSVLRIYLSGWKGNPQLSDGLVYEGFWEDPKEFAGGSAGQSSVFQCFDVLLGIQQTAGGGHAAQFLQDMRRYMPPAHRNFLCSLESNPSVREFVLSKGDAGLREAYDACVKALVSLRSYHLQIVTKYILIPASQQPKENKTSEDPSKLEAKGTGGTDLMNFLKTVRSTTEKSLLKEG
- experiment.description: Inhibition of human IDO1 expressed in Escherichia coli Rosetta measured after 1 hr by microplate reader analysis
For clarity, the numbers are log10 values of IC50 expressed in nM.

Please fill in: log10 of IC50 reported for Fc1cccc2c1C(C1CCN(c3ccc(N4CCOCC4)cc3)CC1)n1cncc1-2 (stereo not given) = 2.55

The reported log10 of IC50 of the compound Cn1cc(-c2cnc(N3CCC(C4c5c(F)cccc5-c5cncn54)CC3)nc2)cn1 (stereo not given) was 2.05

log10 of IC50 reported for this compound O=C(c1ccccc1)N1CCC(C2c3c(F)cccc3-c3cncn32)CC1 (stereo not given) : 3.55

Item: Fc1cccc2c1C(Cc1ccccc1)n1cncc1-2 (stereo not given) | log10 of IC50: 3.44

Sure, the documented log10 of IC50 for Cc1cc(-c2cnn(C)c2)ccc1N1CCC(C2c3c(F)cccc3-c3cncn32)CC1 (stereo not given) is 1.30

====

- experiment.description: Oral bioavailability in Beagle dog at 2 mg/kg measured upto 24 hrs
- Format: ADME, organism-based, Canis lupus familiaris
- study.conditions: in vivo
endpoint: bioavailability (%)
Give a bare numeral; the unit % is implied.

Briefly, bioavailability measured for `Cn1cc(-c2ccc(N3CCC([C@H]4c5c(F)cccc5-c5cncn54)CC3)cc2)cn1` : 27.3

====

- experiment.description: Half-life in rat liver microsomes
- Assay type: ADME, Microsome
endpoint: half-life (h)
Report only the number, with the unit h understood.

Entry `Cn1cc(-c2ccc(N3CCC([C@H]4c5c(F)cccc5-c5cncn54)CC3)cc2)cn1` , half-life reported as 2.37

====

- experiment.description: AUC in C57BL/6 mouse at 10 mg/kg via oral gavage measured upto 24 hrs
- Format: ADME, organism-based
- Set-up: time < 24 hr, dose 10 mg/kg, route oral
- study.conditions: in vivo
endpoint: AUC at 24 h (ng·h/mL)
Kindly provide the numeric value in ng·h/mL only, without the unit symbol.

Quick note, AUC at 24 h for `Cn1cc(-c2ccc(N3CCC([C@H]4c5c(F)cccc5-c5cncn54)CC3)cc2)cn1` landed at 29100

====

- experiment.description: Protein binding in human plasma measured after 4 hrs by rapid equilibrium dialysis
- Type: ADME, cell-free
- study.conditions: read-out: PPB (converted)
endpoint: fraction unbound at 4 h

So for `Cn1cc(-c2ccc(N3CCC([C@H]4c5c(F)cccc5-c5cncn54)CC3)cc2)cn1` , the logged fraction unbound at 4 h turned out to be 0.003

====

- experiment.description: Protein binding in mouse plasma measured after 2 to 6 hrs by rapid equilibrium dialysis
- Format: ADME, cell-free
- study.conditions: read-out: PPB (converted)
endpoint: fraction unbound
Just the number, please, no unit attached.

Input `Cn1cc(-c2ccc(N3CCC([C@H]4c5c(F)cccc5-c5cncn54)CC3)cc2)cn1` . Output fraction unbound: 0.004

====

- experiment.description: Protein binding in dog plasma measured after 2 to 6 hrs by rapid equilibrium dialysis
- Assay type: ADME, cell-free, Canis lupus familiaris
- study.conditions: read-out: PPB (converted)
endpoint: fraction unbound
Lab note: write the figure by itself, no unit.

Measured fraction unbound of `Cn1cc(-c2ccc(N3CCC([C@H]4c5c(F)cccc5-c5cncn54)CC3)cc2)cn1` : 0.008

====

- experiment.description: Oral bioavailability in Sprague-Dawley rat at 10 mg/kg measured upto 24 hrs
- Type: ADME, organism-based
- study.conditions: in vivo
endpoint: bioavailability

Please fill in: bioavailability reported for `Cn1cc(-c2ccc(N3CCC([C@H]4c5c(F)cccc5-c5cncn54)CC3)cc2)cn1` = 60.3%

====

- experiment.description: Cmax in C57BL/6 mouse at 10 mg/kg via oral gavage measured upto 24 hrs
- Type: ADME, organism-based
- Design: dose 10 mg/kg, route oral
- study.conditions: in vivo
endpoint: Cmax (ng/mL)
Report the value in ng/mL with no unit label.

Measured Cmax, `Cn1cc(-c2ccc(N3CCC([C@H]4c5c(F)cccc5-c5cncn54)CC3)cc2)cn1` : 3600

====

- experiment.description: Half-life in Beagle dog at 2 mg/kg via oral gavage measured upto 24 hrs
- Type: ADME, organism-based, Canis lupus familiaris
- study.conditions: in vivo
endpoint: half-life (min)
Expressed in min, but write only the number.

Entry under test: `Cn1cc(-c2ccc(N3CCC([C@H]4c5c(F)cccc5-c5cncn54)CC3)cc2)cn1` . Its half-life was 389

The reported numbers originate from ChEMBL document CHEMBL4359827.
